- Tested on: recombinant enzymes (antigens)
- Method: Polyclonal antisera titres by ELISA
- Format: binding
- Experimental setup: rabbit antiserum, after 8 weeks
Listing of recorded Pre-boost titre (50%) by entry.
Result type: Pre-boost titre (50%)

• E. coli BNfnB (protein) MDIISVALKRHSTKAFDASKKLTPEQAEQIKTLLQYSPSSTNSQPWHFIVASTEEGKARVAKSAAGNYVFNERKMLDASHVVVFCAKTAMDDVWLKLVVDQEDADGRFATPEAKAANDKGRKFFADMHRKDLHDDAEWMAKQVYLNVGNFLLGVAALGLDAVPIEGFDAAILDAEFGLKEKGYTSLVVVPVGHHSVEDFNATLPKSRLPQNITLTEV = 1300
• YdgI (Bacillus subtilis subsp. subtilis str. 168) (protein, made in house; host or cells: E. coli (pMTL1015; HMS174)) MIKTNDFMEIMKGRRSIRNYDPAVKISKEEMTEILEEATTAPSSVNAQPWRFLVIDSPEGKEKLAPLASFNQTQVTTSSAVIAVFADMNNADYLEEIYSKAVELGYMPQEVKDRQIAALTAHFEKLPAQVNRETILIDGGLVSMQLMLTARAHGYDTNPIGGYDKENIAETFGLDKERYVPVMLLSIGKAADEGYASYRLPIDTIAEWK = 4900
• C. jejuni NfnB: nitroreductase from Campylobacter jejuni, SEQ ID NO: 23 (protein, listed as Campylobacter jejuni) MKKELEIFSTRYSCRNFKNEKLKKEDLNSILEIARLSPSSLGLEPWKFIVVQDEKRKEELSKICNQQKHVKDCAALIIIISRLDFLDYFEEKLRKRDMSETEMQKRLDTYMPFLKSLNQEQKISYAREQAHIALASILYSANALNIASCTIGGFDKEKLDSYLSLDIQKERSSLVVALGYCNDKKNPQKNRFSFDEVVKFI = 1100
